Ref: the supplement of paper PMC10567573

B1: CPXM2 (parent)
chain: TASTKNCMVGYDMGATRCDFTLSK

# Variants of: B1
# assay.summary: protein stability index of a GFP-peptide fusion (GPS, HEK-293T) (PSI 1-6); higher = more stable;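 further: lentivirally expressed fusions sorted by FACS into six bins by GFP to DsRed ratio, PSI derived from sequencing read proportions per bin multiplied by bin number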
# assay.conditions: c terminus: a fixed tail appended
Answer not satisfied if protein stability index is under 2, and satisfied if it is 2 or more.

q: Kindly determine if protein stability index recorded for T4N is above or exactly 2.
a: satisfied

q: Then this variant: T1R
a: not satisfied

q: Then what about the variant C18S ?
a: satisfied

q: Moving on to G14H
a: satisfied

q: What do you get for K5C ?
a: not satisfied

q: Entry to check: S23C
a: not satisfied

q: Note, next up: A15E
a: satisfied

q: Would you mind doing T16W as well?
a: satisfied

q: And C7F ?
a: satisfied

q: // repeat for G10N and report
a: not satisfied
